Exercise: for every item that follows, state its recorded Ratio.
Test system: Rev responsive element (RRE) RNA
Assay: Ratio of the dissociation constant between Rev37-50 and the PNA-peptide
Format: nucleic-acid assay
Give bare numbers.

In the examples that follow, each entry is paired with its recorded Ratio.
[
  {
    "entry-smiles": "C[C@H](NC(=O)CCC(=O)O)C(=O)N[C@@H](CCCNC(=N)N)C(=O)N[C@@H](CCCNC(=N)N)C(=O)N[C@@H](CC(N)=O)C(=O)N[C@@H](CCCNC(=N)N)C(=O)N[C@@H](CCCNC(=N)N)C(=O)N[C@@H](CCCNC(=N)N)C(=O)N[C@@H](CCCNC(=N)N)C(=O)N[C@@H](Cc1c[nH]c2ccccc12)C(=O)N[C@@H](CCCNC(=N)N)C(=O)N[C@@H](CCC(=O)O)C(=O)N[C@@H](CCCNC(=N)N)C(=O)N[C@@H](CCC(N)=O)C(=O)N[C@H](CCCNC(=N)N)C(N)=O",
    "value-kind": "Ratio",
    "reported-measurement": 1
  },
  {
    "entry-smiles": "Cc1cn(CC(=O)N(CCNC(=O)CCC(=O)O)CC(=O)N[C@@H](C)C(=O)N[C@@H](CCCNC(=N)N)C(=O)N[C@@H](CCCNC(=N)N)C(=O)N[C@@H](CC(N)=O)C(=O)N[C@@H](CCCNC(=N)N)C(=O)N[C@@H](CCCNC(=N)N)C(=O)N[C@@H](CCCNC(=N)N)C(=O)N[C@@H](CCCNC(=N)N)C(=O)N[C@@H](Cc2c[nH]c3ccccc23)C(=O)N[C@@H](CCCNC(=N)N)C(=O)N[C@@H](CCC(=O)O)C(=O)N[C@@H](CCCNC(=N)N)C(=O)N[C@@H](CCC(N)=O)C(=O)N[C@H](CCCNC(=N)N)C(N)=O)c(=O)[nH]c1=O",
    "value-kind": "Ratio",
    "reported-measurement": 2.2
  }
]

Then this compound:
Looking up `C[C@H](NC(=O)CN(CCNC(=O)CCC(=O)O)C(=O)Cn1cnc2c(=O)[nH]c(N)nc21)C(=O)N[C@@H](CCCNC(=N)N)C(=O)N[C@@H](CCCNC(=N)N)C(=O)N[C@@H](CC(N)=O)C(=O)N[C@@H](CCCNC(=N)N)C(=O)N[C@@H](CCCNC(=N)N)C(=O)N[C@@H](CCCNC(=N)N)C(=O)N[C@@H](CCCNC(=N)N)C(=O)N[C@@H](Cc1c[nH]c2ccccc12)C(=O)N[C@@H](CCCNC(=N)N)C(=O)N[C@@H](CCC(=O)O)C(=O)N[C@@H](CCCNC(=N)N)C(=O)N[C@@H](CCC(N)=O)C(=O)N[C@H](CCCNC(=N)N)C(N)=O` , I found its Ratio recorded as 2.9

---

Test system: Rev responsive element (RRE) RNA
Experiment: Ratio of the dissociation constant between Rev37-50 and the PNA-peptide
Assay type: nucleic-acid assay
value-kind: Ratio
Numbers only.

[
  {
    "entry-smiles": "CC(=O)N(CCNC(=O)NCC(=O)O)CC(=O)N[C@H](C)C(=O)N[C@@H](CCCNC(=N)N)C(=O)N[C@@H](CCCNC(=N)N)C(=O)N[C@@H](CC(N)=O)C(=O)N[C@@H](CCCNC(=N)N)C(=O)N[C@@H](CCCNC(=N)N)C(=O)N[C@@H](CCCNC(=N)N)C(=O)N[C@@H](CCCNC(=N)N)C(=O)N[C@@H](Cc1c[nH]c2ccccc12)C(=O)N[C@@H](CCCNC(=N)N)C(=O)N[C@@H](CCC(=O)O)C(=O)N[C@@H](CCCNC(=N)N)C(=O)N[C@@H](CCC(N)=O)C(=O)N[C@H](CCCNC(=N)N)C(N)=O",
    "value-kind": "Ratio",
    "reported-measurement": 2
  }
]

Looking up `C[C@H](NC(=O)CN(CCNC(=O)CCC(=O)O)C(=O)Cn1ccc(N)nc1=O)C(=O)N[C@@H](CCCNC(=N)N)C(=O)N[C@@H](CCCNC(=N)N)C(=O)N[C@@H](CC(N)=O)C(=O)N[C@@H](CCCNC(=N)N)C(=O)N[C@@H](CCCNC(=N)N)C(=O)N[C@@H](CCCNC(=N)N)C(=O)N[C@@H](CCCNC(=N)N)C(=O)N[C@@H](Cc1c[nH]c2ccccc12)C(=O)N[C@@H](CCCNC(=N)N)C(=O)N[C@@H](CCC(=O)O)C(=O)N[C@@H](CCCNC(=N)N)C(=O)N[C@@H](CCC(N)=O)C(=O)N[C@H](CCCNC(=N)N)C(N)=O` , I found its Ratio recorded as 2.8
